Values from patent US20230235080A1

- MEASURED_ON: T1, mouse Trop-2-His (mouse, UniProt Q8BGV3 25-270)
- T1 sequence (looked up): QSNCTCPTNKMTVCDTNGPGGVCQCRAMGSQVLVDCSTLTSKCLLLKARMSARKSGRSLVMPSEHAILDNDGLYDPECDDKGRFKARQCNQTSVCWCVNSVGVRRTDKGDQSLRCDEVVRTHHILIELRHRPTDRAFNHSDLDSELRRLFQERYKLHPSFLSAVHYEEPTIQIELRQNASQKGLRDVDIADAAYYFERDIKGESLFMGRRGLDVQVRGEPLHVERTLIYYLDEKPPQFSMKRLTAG
- TEST_SUMMARY: ELISA on coated antigen, one antibody dilution (concentration not given), detected by GAH-HRP; y axis without a label (OD450 by the text)

BINDER | binding result
humanized IgG #118-2-5 HuA/LuY (antibody, V domains shown, Full-length IgG expressed in HEK293-6E cells) VH: QVQLQESGPGLVKPSETLSLTCTVSGFSLTSYGVNWIRQPPGKGLEWIGVMWAGGSTNYNSALMSRVTISVDTSKNQFSLKLSSVTAADTAVYYCARDENWDGAWFAYWGQGTLVTVSS VL: DIVMTQSPSSLAVSLGERATMSCKSSQSLLNSGTRKNYLAWYQQKPGQPPKLLISWASSRESGVPDRFSGSGSGTDFTLTISSVQAEDLAVYYCKQSYNLFTFGGGTKVEIK | no binding
humanized IgG #118-2-5 HuB/LuY (antibody, V domains shown, Full-length IgG expressed in HEK293-6E cells; also called 6 (HuB/LuY)) VH: QVQLKQSGPGLVAPSQSLSITCTVSGFSLTSYGVNWIRQPPGKGLEWIGVMWAGGSTNYNSALMSRVTISVDTSKNQFSLKLSSVTAADTAVYYCARDENWDGAWFAYWGQGTLVTVSS VL: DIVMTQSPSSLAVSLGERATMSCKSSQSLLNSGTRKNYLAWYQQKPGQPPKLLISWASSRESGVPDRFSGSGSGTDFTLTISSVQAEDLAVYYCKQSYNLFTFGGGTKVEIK | no binding
humanized IgG #118-2-5 HuB/LuX (antibody, V domains shown, Full-length IgG expressed in HEK293-6E cells; also called 2 (HuB/LuX)) VH: QVQLKQSGPGLVAPSQSLSITCTVSGFSLTSYGVNWIRQPPGKGLEWIGVMWAGGSTNYNSALMSRVTISVDTSKNQFSLKLSSVTAADTAVYYCARDENWDGAWFAYWGQGTLVTVSS VL: DIVMTQSPDSLAVSLGERATINCKSSQSLLNSGTRKNYLAWYQQKPGQPPKLLIYWASSRESGVPDRFSGSGSGTDFTLTISSLQAEDVAVYYCKQSYNLFTFGGGTKVEIK | no binding
